B1: minF1; the commonest letter at each place (parent)
chain: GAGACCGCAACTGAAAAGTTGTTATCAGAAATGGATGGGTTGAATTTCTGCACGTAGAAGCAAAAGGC

# Variants of: B1
# testDescription: fraction ligated after 30 min (ligated reads / total reads); higher = more ligase activity
# setupConditions: with F1*subA RNA substrate (template-directed ligation), 42 °C

{"columns": ["variantLabel", "fraction ligated"],
 "data": [
  ["T25C A35G", 0.0463],
  ["A30G G42A", 0.487],
  ["T25C A29G", 0.0416],
  ["G33C T36C", 0.00989],
  ["A27C T32G", 0.0136],
  ["C26A G34A", 0.0394],
  ["T32G A43G", 0.196],
  ["A24C A31T", 0.0211],
  ["A24G A29T", 0.116],
  ["G28T T36G", 0.0726],
  ["G34A A43C", 0.00464],
  ["T23G A31C", 0.783],
  ["T23G G34C", 0.00122],
  ["A24C", 0.025],
  ["A24C A31C", 0.0126],
  ["T23G G42C", 0.00862],
  ["C26T G37T", 0.00513],
  ["A27T A30T", 0.834],
  ["A30T G37C", 0.0041],
  ["C26A G28A", 0.0578],
  ["T32G A44T", 0.0536],
  ["T36G G42C", 0.00216],
  ["T25G T32A", 0.00223],
  ["G33T", 0.605],
  ["A35C A43C", 0.00377],
  ["T25A T32C", 0.00391],
  ["T25C T36G", 0.0541],
  ["T25A A30C", 0.0114],
  ["A24T A29T", 0.0058],
  ["C26A G42C", 0.00168],
  ["T32A A44T", 0.163],
  ["T32G G37C", 0.0035],
  ["G34C A35T", 0.00667],
  ["A27G G42T", 0.16],
  ["G28T A31C", 0.82],
  ["G34C G42T", 0.00284],
  ["G34C T36A", 0.00257],
  ["T23A G34T", 0.00436],
  ["T23C G37C", 0.00507],
  ["A43C A44T", 0.00456],
  ["A27T A31C", 0.844],
  ["C26G G42C", 0.00152],
  ["A35G", 0.271],
  ["G37C A44C", 0.00161],
  ["A24T A35G", 0.00268],
  ["A27G A35G", 0.332],
  ["T25A C26G", 0.00462],
  ["C26A G42T", 0.00182],
  ["T25C G42T", 0.00269],
  ["G34C A43G", 0.00118],
  ["A24C C26G", 0.032],
  ["A29G A30C", 0.84],
  ["T25G A27G", 0.0208],
  ["G28C A29C", 0.795],
  ["T25G G42T", 0.000854],
  ["C26T G34C", 0.00303],
  ["T32G G34T", 0.00509],
  ["G37A A43T", 0.00461],
  ["A30T G37T", 0.0219],
  ["T23A A43C", 0.00617],
  ["C26A G33A", 0.19],
  ["A27C G34T", 0.0114],
  ["A29T T32A", 0.0493],
  ["A24C G42A", 0.00275],
  ["G28T A30C", 0.819],
  ["A31T G37C", 0.00621],
  ["T23C A43G", 0.00398],
  ["A35C G37A", 0.00266],
  ["A43G A44T", 0.00618],
  ["C26G G28C", 0.0331],
  ["G33T G34T", 0.00514],
  ["A24G G34T", 0.000849],
  ["A24T T36C", 0.00304],
  ["G33A G37C", 0.00669],
  ["A29T A30C", 0.806],
  ["A31T T32A", 0.0898],
  ["T36C A43T", 0.00367],
  ["T23A G28T", 0.176],
  ["T23G C26G", 0.0528],
  ["G34A A35C", 0.00719],
  ["A31T G37A", 0.00615],
  ["A24T T32C", 0.000877],
  ["A29G A30G", 0.811],
  ["A29G G34T", 0.00809]
]}
